Target entity: T1, biotinylated CD3 epsilon:delta heterodimer protein (Amsbio AMS.CDD-H52WO) (Homo sapiens (Human), UniProt P07766 23-126; P04234 22-105)
T1 construct: also called CD3 heterodimer
Assay text: BLI (Octet), CD3 on SA sensor, Fab analyte;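 note: fab analyte at several concentrations up to 300 nM, association 100 s then 300 s dissociation in buffer, biosensors blocked with biocytin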
Measure name: Kd (nM)
# output: bare number, implied unit nM

INSERT INTO measurements (binder, measure_name, result) VALUES
  ('huSP34.3.8 Fab-HF (Fab, V domains shown, also called HC3+LC8) VH: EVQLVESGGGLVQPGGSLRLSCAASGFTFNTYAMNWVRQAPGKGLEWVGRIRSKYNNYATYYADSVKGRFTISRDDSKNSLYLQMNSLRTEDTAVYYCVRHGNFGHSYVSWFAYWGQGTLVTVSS VL: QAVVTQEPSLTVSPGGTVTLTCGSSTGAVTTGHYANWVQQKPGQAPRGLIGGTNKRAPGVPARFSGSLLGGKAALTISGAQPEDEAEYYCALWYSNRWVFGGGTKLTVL', 'Kd', 1.9);

Here's the next entry for you.
// returns reported Kd for input huSP34.35.12 Fab-H (Fab, V domains shown, also called HC35+LC12) VH: EVQLVESGGGLVQPGGSLRLSCAASGFTFNDYAMNWVRQAPGKGLEWVGRTRSKYNNYATYYAASVKGRFTISRDDSKNSLYLQMNSLKTEDTAMYYCVRHGNFGHSYVSWFAYWGQGTLVTVSS VL: QAVVTQPPSLTVSPGGTVTLTCGSSTGAVTTGHYANWVQQKPGQAPRGLIGGTNKRAPWTPARFSGSLSGGKAALTISGAQPEDEAEYYCALWYSNRWVFGGGTKLTVL
125
